target: Bromodomain-containing protein 4 (Homo sapiens); assay: Inhibition of HIS9-tagged BRD4 (unknown origin) expressed in Escherichia coli BL21 (DE3) cells incubated for 30 mins by AlphaScreen assay; conditions: read-out: IC50
MEASUREMENT_KIND: pIC50
Give bare numbers, as −log10 of the molar value.

Please indicate pIC50 recorded for "Cn1ncc(Nc2ccc(CCN)cc2)c(Cl)c1=O"
4.51

* * *

Assignment: determine reported Kd for the given compounds.
Biological target: Bromodomain-containing protein 9 (Homo sapiens, UniProt Q9H8M2)
Sequence (Q9H8M2 whole entry): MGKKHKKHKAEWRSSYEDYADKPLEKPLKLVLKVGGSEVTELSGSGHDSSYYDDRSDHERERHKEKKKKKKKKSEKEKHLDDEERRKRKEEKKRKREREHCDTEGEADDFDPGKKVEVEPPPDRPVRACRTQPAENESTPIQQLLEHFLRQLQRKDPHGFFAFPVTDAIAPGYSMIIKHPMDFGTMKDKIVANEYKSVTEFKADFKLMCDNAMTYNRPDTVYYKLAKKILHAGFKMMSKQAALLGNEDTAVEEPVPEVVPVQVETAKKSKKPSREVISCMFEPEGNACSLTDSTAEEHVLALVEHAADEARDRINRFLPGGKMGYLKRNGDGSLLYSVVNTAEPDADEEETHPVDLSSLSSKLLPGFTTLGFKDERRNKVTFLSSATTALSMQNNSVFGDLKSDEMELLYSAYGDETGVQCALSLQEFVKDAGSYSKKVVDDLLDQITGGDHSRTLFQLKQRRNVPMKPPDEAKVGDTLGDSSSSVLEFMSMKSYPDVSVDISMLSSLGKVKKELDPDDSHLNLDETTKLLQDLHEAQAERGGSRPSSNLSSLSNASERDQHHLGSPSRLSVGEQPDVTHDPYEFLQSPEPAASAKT
Assay: Binding affinity to BRD9 (unknown origin) by BROMOscan method
Answers are plain numbers, in nM.

| SMILES | QUANTITY_UNIT | ASSAY_RESULT |
| --- | --- | --- |
| Cn1ncc(Nc2ccc(CCN)cc2)c(Br)c1=O | nM | 0.24 |

Quick one: give measured Kd for "CN(C)CCCc1ccc(Nc2cnn(C)c(=O)c2Cl)cc1"
230
